protocol: conversion factors for progestogens: amount equivalent to a given amount of levonorgestrel
assay-setup: estimated amount of progestogen
reported-endpoint: equivalent to 750 μg levonorgestrel (mg)

compound	value
C[C@]12CCC(=O)C=C1[C@@H]1C[C@@H]1[C@H]1[C@@H]3[C@@H]4C[C@@H]4[C@@]4(CCC(=O)O4)[C@@]3(C)CC[C@@H]12	15
C#C[C@]1(OC(C)=O)CC[C@H]2[C@@H]3CCC4=CC(=NO)CC[C@@H]4[C@H]3CC[C@@]21CC (mixture of isomers) [norgestimate]	1.275
CC(=O)[C@H]1CC[C@H]2[C@@H]3C=CC4=CC(=O)CC[C@@]4(C)[C@@H]3CC[C@]12C	100
C#C[C@]1(O)CC[C@H]2[C@@H]3CCC4=CC(=O)CC[C@@H]4[C@H]3CC[C@@]21C	5.25
